Hey, just so you know, these numbers are from patent US6858638B2.

Molecular target: human KDR enzyme (Homo sapiens, UniProt P35968)
Construct: The cytoplasmic domain of the human KDR enzyme; GST; made in house; host or cells: SF21 insect cells (baculovirus)
Sequence (P35968 786-1356 limits assumed): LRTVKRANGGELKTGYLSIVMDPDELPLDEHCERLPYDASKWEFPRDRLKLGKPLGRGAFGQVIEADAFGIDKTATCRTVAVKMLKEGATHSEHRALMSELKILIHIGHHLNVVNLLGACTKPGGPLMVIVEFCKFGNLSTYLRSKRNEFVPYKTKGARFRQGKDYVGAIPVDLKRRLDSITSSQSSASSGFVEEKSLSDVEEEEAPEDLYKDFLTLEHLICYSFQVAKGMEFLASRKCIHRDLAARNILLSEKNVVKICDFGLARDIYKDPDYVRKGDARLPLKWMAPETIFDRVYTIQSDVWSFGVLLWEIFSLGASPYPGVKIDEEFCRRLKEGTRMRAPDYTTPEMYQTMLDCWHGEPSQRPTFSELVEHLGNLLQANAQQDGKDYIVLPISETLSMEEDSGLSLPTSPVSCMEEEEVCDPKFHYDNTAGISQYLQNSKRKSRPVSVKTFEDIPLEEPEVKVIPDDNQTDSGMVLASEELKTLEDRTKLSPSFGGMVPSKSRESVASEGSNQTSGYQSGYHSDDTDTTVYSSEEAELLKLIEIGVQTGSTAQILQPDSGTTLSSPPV
Experiment: KDR substrate (PLCγ) phosphorylation, scintillation assay
Type: biochemical
Settings: 10 μM; read-out: KDR % inhib at 10 μM
experimental.readout: inhibition at 10 µM (%)

// worked examples, inhibition at 10 µM included
> print(dat)
                                        smi                             target.system  measurement
1  CS(=O)(=O)c1ccccc1S(=O)(=O)Nc1ccc2[nH]nc(-c3ccccc3Cl)c2c1  human KDR enzyme (Homo sapiens, UniProt P35968)           49
2  CS(=O)(=O)c1ccccc1S(=O)(=O)Nc1ccc2[nH]nc(-c3ccc[nH]3)c2c1  human KDR enzyme (Homo sapiens, UniProt P35968)           64
3  CS(=O)(=O)c1ccccc1S(=O)(=O)Nc1ccc2[nH]nc(-c3cccc(O)c3)c2c1  human KDR enzyme (Homo sapiens, UniProt P35968)           64

1. CN(C)c1cccc2c(S(=O)(=O)Nc3cccc(-c4n[nH]c5ccc(NS(=O)(=O)c6ccccc6S(C)(=O)=O)cc45)c3)cccc12
2. Cc1n[nH]c2ccc(NS(=O)(=O)c3ccccc3S(C)(=O)=O)cc12
Prompt: For this pair, 1 and 2 , which shows a numerically higher inhibition at 10 µM? Please identify the chosen entry by its label.
Response: 1
(1: 33%, 2: 20%)
